In this section, each of the binders is paired with its reported pEC50.
TARGET_OR_TEST_SYSTEM: T1, cynomolgus IL-36R overexpressed on 293T-CynoIL36R-NFκB cells (cynomolgus monkey)
T1 construct: Entry includes the signal peptide; also called monkey IL-36R
T1 chain: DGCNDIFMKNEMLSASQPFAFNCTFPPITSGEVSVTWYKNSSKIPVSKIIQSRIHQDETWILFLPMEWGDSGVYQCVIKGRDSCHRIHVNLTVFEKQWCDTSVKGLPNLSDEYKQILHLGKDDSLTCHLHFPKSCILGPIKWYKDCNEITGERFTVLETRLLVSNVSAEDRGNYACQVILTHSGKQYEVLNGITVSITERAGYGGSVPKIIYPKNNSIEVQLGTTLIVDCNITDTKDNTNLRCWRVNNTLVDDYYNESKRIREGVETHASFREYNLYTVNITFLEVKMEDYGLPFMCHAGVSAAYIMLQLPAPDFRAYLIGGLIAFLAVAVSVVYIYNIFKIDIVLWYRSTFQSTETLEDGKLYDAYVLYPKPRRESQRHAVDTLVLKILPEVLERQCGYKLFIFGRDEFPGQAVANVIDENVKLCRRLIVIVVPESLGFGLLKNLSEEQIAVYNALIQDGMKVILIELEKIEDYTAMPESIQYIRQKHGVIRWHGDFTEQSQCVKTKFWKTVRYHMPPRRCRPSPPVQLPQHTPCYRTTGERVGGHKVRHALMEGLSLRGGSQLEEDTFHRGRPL
ASSAY: FACS on 293T-CynoIL36R-NFκB cells, ratio of MFI to background MFI
Scale: pEC50 equals -log10([C]), with [C] in mol/L.

Below are worked cases with known answers.
1. hz84C4-1.2 (antibody, human IgG4 S228P, kappa, V domains shown, Humanized, human IgG4 / kappa) VH: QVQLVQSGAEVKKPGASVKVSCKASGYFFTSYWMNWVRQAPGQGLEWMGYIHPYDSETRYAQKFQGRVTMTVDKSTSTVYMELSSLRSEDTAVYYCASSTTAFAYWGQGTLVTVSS VL: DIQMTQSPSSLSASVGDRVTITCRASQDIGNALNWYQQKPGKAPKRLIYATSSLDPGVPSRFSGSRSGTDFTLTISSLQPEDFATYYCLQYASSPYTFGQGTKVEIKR :: 7.43
2. hz84C4-2.3 (antibody, human IgG4 S228P, kappa, V domains shown, Humanized, human IgG4 / kappa) VH: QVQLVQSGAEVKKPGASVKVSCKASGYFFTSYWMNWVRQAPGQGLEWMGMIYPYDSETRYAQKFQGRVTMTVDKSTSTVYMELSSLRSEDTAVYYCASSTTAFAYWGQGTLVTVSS VL: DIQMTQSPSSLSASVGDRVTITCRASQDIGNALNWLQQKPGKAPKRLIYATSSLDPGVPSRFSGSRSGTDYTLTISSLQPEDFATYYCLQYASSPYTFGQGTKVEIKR :: 6.75
3. hz84C4-2.2 (antibody, human IgG4 S228P, kappa, V domains shown, Humanized, human IgG4 / kappa) VH: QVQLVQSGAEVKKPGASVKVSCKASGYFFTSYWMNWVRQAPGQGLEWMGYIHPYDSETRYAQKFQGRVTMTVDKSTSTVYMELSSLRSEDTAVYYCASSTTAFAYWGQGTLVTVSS VL: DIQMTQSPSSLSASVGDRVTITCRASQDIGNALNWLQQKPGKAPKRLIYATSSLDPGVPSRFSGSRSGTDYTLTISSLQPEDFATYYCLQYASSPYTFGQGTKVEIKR :: 7.77
4. hz84C4-2.5 (antibody, human IgG4 S228P, kappa, V domains shown, Humanized, human IgG4 / kappa) VH: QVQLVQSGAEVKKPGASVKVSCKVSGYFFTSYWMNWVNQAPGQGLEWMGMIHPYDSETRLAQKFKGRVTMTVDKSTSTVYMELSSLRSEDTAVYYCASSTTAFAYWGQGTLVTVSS VL: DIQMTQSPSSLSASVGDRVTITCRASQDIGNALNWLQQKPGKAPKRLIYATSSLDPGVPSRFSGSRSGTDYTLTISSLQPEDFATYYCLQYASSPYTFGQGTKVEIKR :: 7.93
5. hz84C4-1.3 (antibody, human IgG4 S228P, kappa, V domains shown, Humanized, human IgG4 / kappa) VH: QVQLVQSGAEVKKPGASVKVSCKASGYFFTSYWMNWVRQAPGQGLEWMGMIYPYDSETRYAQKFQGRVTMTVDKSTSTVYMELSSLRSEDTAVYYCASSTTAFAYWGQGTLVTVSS VL: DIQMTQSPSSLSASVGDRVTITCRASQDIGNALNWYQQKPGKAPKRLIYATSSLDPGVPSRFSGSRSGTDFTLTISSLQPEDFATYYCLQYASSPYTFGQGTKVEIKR :: 8.04

q: Indicate its recorded pEC50; the binder in question is hz84C4-1.5 (antibody, human IgG4 S228P, kappa, V domains shown, Humanized, human IgG4 / kappa) VH: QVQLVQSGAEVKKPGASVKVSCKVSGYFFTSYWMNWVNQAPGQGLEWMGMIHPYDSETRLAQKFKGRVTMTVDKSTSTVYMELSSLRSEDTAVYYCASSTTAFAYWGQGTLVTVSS VL: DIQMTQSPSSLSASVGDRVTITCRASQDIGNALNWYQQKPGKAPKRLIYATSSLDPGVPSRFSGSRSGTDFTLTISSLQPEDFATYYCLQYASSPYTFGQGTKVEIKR
a: 7.98

q: Indicate its recorded pEC50; the binder in question is hz84C4-1.1 (antibody, human IgG4 S228P, kappa, V domains shown, Humanized, human IgG4 / kappa) VH: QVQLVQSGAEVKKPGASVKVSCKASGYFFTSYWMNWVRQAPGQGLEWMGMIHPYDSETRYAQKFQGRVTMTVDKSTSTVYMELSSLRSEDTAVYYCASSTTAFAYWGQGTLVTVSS VL: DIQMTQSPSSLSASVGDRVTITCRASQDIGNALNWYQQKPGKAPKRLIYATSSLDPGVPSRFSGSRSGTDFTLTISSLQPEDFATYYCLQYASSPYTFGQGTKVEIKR
a: 7.74

q: Indicate its recorded pEC50; the binder in question is hz84C4-2.1 (antibody, human IgG4 S228P, kappa, V domains shown, Humanized, human IgG4 / kappa) VH: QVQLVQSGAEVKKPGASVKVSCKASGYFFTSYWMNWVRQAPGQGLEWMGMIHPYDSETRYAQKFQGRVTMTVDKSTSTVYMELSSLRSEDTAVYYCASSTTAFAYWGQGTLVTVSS VL: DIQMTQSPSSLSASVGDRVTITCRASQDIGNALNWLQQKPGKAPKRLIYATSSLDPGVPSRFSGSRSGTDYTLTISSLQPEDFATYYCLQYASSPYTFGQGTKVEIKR
a: 8.24

q: Indicate its recorded pEC50; the binder in question is hz84C4-1.4 (antibody, human IgG4 S228P, kappa, V domains shown, Humanized, human IgG4 / kappa) VH: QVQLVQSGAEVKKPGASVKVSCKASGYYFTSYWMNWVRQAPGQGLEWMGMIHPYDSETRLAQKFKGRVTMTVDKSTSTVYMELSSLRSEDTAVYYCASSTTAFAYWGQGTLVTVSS VL: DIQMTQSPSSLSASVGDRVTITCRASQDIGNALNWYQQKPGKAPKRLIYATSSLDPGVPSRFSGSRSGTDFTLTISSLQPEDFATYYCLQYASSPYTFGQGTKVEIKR
a: 7.61

q: Indicate its recorded pEC50; the binder in question is hz84C4-2.4 (antibody, human IgG4 S228P, kappa, V domains shown, Humanized, human IgG4 / kappa) VH: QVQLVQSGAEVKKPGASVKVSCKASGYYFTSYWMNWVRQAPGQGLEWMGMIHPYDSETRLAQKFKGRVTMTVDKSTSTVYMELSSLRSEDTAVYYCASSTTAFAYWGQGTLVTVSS VL: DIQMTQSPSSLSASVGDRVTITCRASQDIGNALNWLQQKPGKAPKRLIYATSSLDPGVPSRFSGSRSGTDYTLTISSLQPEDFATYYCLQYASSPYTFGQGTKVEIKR
a: 7.32
